I'd appreciate it if you could supply IC50 [µg/mL] pseudotyped lenti neut values for the items below.
target: SARS CoV-2 spike protein on pseudovirus (SARS-CoV-2, UniProt P0DTC2 14-1273)
protocol: cell-based or functional assay
Give bare numbers, in µg/mL.

COVID19_P24_C01 (scFv, V domains shown) VH: QVQLVQSGAEVKKPGASVKVSCKASGYTFTRYYIHWVRQAPGQGLEWMGIINPSGGSTTYAQKFQGRVTMTRDTSTSTVYMELSSLRSEDTAVYYCAKGAPHDYIWGSYRPDAFDIWGQGTMVTVSS VL: DIQMTQSPSSLSASVGDRVTITCRASENIDSWLAWYQQKPGKAPKLLIYEASTLESGVPSRFSGSGSGTDFTLTISSLQPEDFATYYCHQYLSSPETFGQGTKVEIKR :: 0.92

Count: 3. Required value per item: IC50 [µg/mL] pseudotyped lenti neut.
1. COVID19_P23_G12 (scFv, V domains shown) VH: QVQLVQSGAEVKKPGASVKVSCKASGYIFTSYPIHWVRQAPGQGLEWMGWMNPNSGNTGYAQKFQGRVTMTRDTSTSTVYMELSSLRSEDTAVYYCARDRGSYDTDAFDIWGQGTMVTVSS VL: DIQMTQSPSSLSASVGDRVTITCRASQDISNYLNWYQQKPGKAPKLLIYAASNLQSGVPSRFSGSGSGTDFTLTISSLQPEDFATYYCQQANSFPSTFGQGTKLEIKR
2. COVID19_P24_D08 (scFv, V domains shown) VH: QVQLVQSGAEVKKPGASVKVSCKASGYTFTSYDINWVRQAPGQGLEWMGIIDPSGGSTSYAQKFQGRVTMTRDTSTSTVYMELSSLRSEDTAVYYCATVTPGYGMDVWGQGTTVTVSS VL: DIQMTQSPSSLSASVGDRVTITCRASQTIYSYLNWYQQKPGKAPKLLIYDASNLETGVPSRFSGSGSGTDFTLTISSLQPEDFATYYCQQAISFPLTFGGGTKLEIKR
3. COVID19_P23_G11 (scFv, V domains shown) VH: QVQLVQSGAEVKKPGASVKVSCKASGGTFRSTAISWVRQAPGQGLEWMGWMNPNSGNTGYAQKFQGRVTMTRDTSTSTVYMELSSLRSEDTAVYYCARAGYSSSSGYYYYGMDVWGKGTTVTVSS VL: DIQMTQSPSSLSASVGDRVTITCRASQGISNNLNWYQQKPGKAPKLLIYAASSLQSGVPSRFSGSGSGTDFTLTISSLQPEDFATYYCQQYDTFPLTFGQGTKVEIKR

A:
15.9
17
0.26
